settings: human, serum
READOUT TYPE: Hepatotoxicity (acute)
One number for each entry.

Some solved cases for reference:
CC(COc1ccccc1)NN (stereo not given) [PHENOXYPROPAZINE]	3
CC1(C)S[C@@H]2[C@H](NC(=O)C(C(=O)O)c3ccccc3)C(=O)N2[C@H]1C(=O)O (stereo not given in full) [CARBENICILLIN]	5
CCCCC1C(=O)N(c2ccccc2)N(c2ccc(O)cc2)C1=O (stereo not given) [OXYPHENBUTAZONE ANHYDROUS]	9
CCc1c2c(nc3ccc(OC(=O)N4CCC(N5CCCCC5)CC4)cc13)-c1cc3c(c(=O)n1C2)COC(=O)[C@]3(O)CC [IRINOTECAN]	3
CO[C@@H]1[C@@H](O[C@@H]2O[C@H](C)[C@@H](O[C@H]3C[C@@](C)(O)[C@@H](OC(=O)CC(C)C)[C@H](C)O3)[C@H](N(C)C)[C@H]2O)[C@@H](CC=O)C[C@@H](C)[C@@H](O)/C=C/C=C/C[C@@H](C)OC(=O)C[C@H]1OC(C)=O [JOSAMYCIN]	9
Nc1nc(Cl)nc2c1ncn2[C@H]1C[C@H](O)[C@@H](CO)O1 [CLADRIBINE]	2

Batch request: Hepatotoxicity (acute) per item, same order as input.
1. Cc1cc2c(cc1CC(=O)c1sccc1S(=O)(=O)Nc1onc(C)c1Cl)OCO2 [SITAXENTAN]
2. CC(C)/N=C/Nc1ccc(-c2c[nH]cn2)cc1 [MIFENTIDINE]
3. Nc1ccn([C@@H]2O[C@H](CO)[C@@H](O)[C@@H]2O)c(=O)n1 [CYTARABINE]
4. NCCCC(N)(C(=O)O)C(F)F (stereo not given) [EFLORNITHINE]

1: 0; 2: 0; 3: 14; 4: 0

Batch request: Hepatotoxicity (acute) per item, same order as input.
1. C=CC1=C(C(=O)O)N2C(=O)[C@@H](NC(=O)/C(=N\O)c3csc(N)n3)[C@H]2SC1
2. CCOc1ccc(NC(C)=O)cc1 [PHENACETIN]

[1, 4]

###

assay: Proposed mechanism(s) of liver damage. [column 'MEC' in source]; conditions: human
READOUT TYPE: Hepatotoxicity (mechanism)

Some solved cases for reference:
Cc1cc2c(s1)Nc1ccccc1N=C2N1CCN(C)CC1	Allergic, Dose-dependant
COc1nc(C)ccc1CN1CC1C#N (stereo not given) [CIAMEXON]	Dose-dependant
Nc1nc2[nH]cc(CCc3ccc(C(=O)N[C@@H](CCC(=O)O)C(=O)O)cc3)c2c(=O)[nH]1	Dose-dependant
CC1=C(C(=O)O)N2C(=O)[C@@H](NC(=O)[C@H](N)c3ccc(O)cc3)[C@H]2SC1	Allergic
CC(=O)Oc1cccc2c1C(=O)c1c(OC(C)=O)cc(C(=O)O)cc1C2=O	Allergic
COCCCC/C(=N\OCCN)c1ccc(C(F)(F)F)cc1	Dose-dependant
O=C(O)c1cn(C2CC2)c2cc(N3CCNCC3)c(F)cc2c1=O	Allergic, Dose-dependant
CC1(C)S[C@@H]2[C@H](NC(=O)C(C(=O)O)c3ccccc3)C(=O)N2[C@H]1C(=O)O (stereo not given in full)	Dose-dependant

Batch request: Hepatotoxicity (mechanism) per item, same order as input.
1. CC(C)N(CCC(C(N)=O)(c1ccccc1)c1ccccn1)C(C)C (stereo not given) [DISOPYRAMIDE]
2. COc1ccc([C@@H]2Sc3ccccc3N(CCN(C)C)C(=O)[C@@H]2OC(C)=O)cc1
3. O=C(Cn1c(=O)sc2ccc(Cl)cc21)N1CCN(CCO)CC1 [TIARAMIDE]
4. CC12CCC(CC1=O)C2(C)C (stereo not given)
5. COc1ccc(C(CN(C)C)C2(O)CCCCC2)cc1 (stereo not given)

["Allergic", "Allergic", "Allergic", "Dose-dependant", "Allergic"]

Batch request: Hepatotoxicity (mechanism) per item, same order as input.
1. COC(=O)Nc1nc2ccc(C(=O)c3ccccc3)cc2[nH]1
2. CN1CCN(CCCN2c3ccccc3Sc3ccccc32)CC1
3. NC1=NC(=O)C(c2ccccc2)O1 (stereo not given)

["Allergic, Dose-dependant", "Dose-dependant", "Allergic, Dose-dependant"]

###

settings: human
Labelling field: enter criterion met if recorded Hepatotoxicity (severe hepatitis) is less than 1. Enter criterion not met if it equals or exceeds that cut-off.

Example cases with answers are listed next.
O=c1[nH]cnc2c1ncn2[C@H]1CC[C@@H](CO)O1 [DIDANOSINE]	criterion not met
CC(C)/N=c1\cc2n(-c3ccc(Cl)cc3)c3ccccc3nc-2cc1Nc1ccc(Cl)cc1 [CLOFAZIMINE]	criterion met
CCOC(=O)C1=C[C@@H](OC(CC)CC)[C@H](NC(C)=O)[C@@H](N)C1 [OSELTAMIVIR]	criterion met
C[C@@](O)(/C=C/[C@H]1CC=CC(=O)O1)[C@@H](C[C@@H](O)\C=C/C=C\C=C\CO)OP(=O)(O)O [FOSTRIECIN]	criterion met
Nc1nc(O)c2ncn(COC(CO)CO)c2n1 [GANCICLOVIR]	criterion met

Please check: Hepatotoxicity (severe hepatitis) for COc1cccc2c1C(=O)c1c(O)c3c(c(O)c1C2=O)C[C@@](O)(C(=O)CO)C[C@@H]3O[C@H]1C[C@H](N)[C@H](O[C@@H]2CCCCO2)[C@H](C)O1 [PIRARUBICIN] , strictly under 1 or not?
criterion met

Please check: Hepatotoxicity (severe hepatitis) for CO[C@H](C(=O)[C@@H](O)[C@@H](C)O)[C@@H]1Cc2cc3cc(O[C@H]4C[C@@H](O[C@H]5C[C@@H](O)[C@H](O)[C@@H](C)O5)[C@H](O)[C@@H](C)O4)c(C)c(O)c3c(O)c2C(=O)[C@H]1O[C@H]1C[C@@H](O[C@H]2C[C@@H](O[C@H]3C[C@](C)(O)[C@H](O)[C@@H](C)O3)[C@@H](O)[C@@H](C)O2)[C@H](O)[C@@H](C)O1 [PLICAMYCIN] , strictly under 1 or not?
criterion not met

Please check: Hepatotoxicity (severe hepatitis) for Cc1oc(=O)oc1COC(=O)[C@@H]1N2C(=O)[C@@H](NC(=O)[C@H](N)c3ccccc3)[C@H]2SC1(C)C [LENAMPICILLIN] , strictly under 1 or not?
criterion met

###

conditions: human
What Hepatotoxicity (choleostasis) was measured for each of the following?
Give bare numbers.

Some solved cases for reference:
C[C@H]([C@](O)(Cn1cncn1)c1ccc(F)cc1F)S(C)(=O)=O [GENACONAZOLE]	0
COCc1c(C(=O)OC(C)C)ncc2[nH]c3ccc(OCc4ccccc4)cc3c12 [ABECARNIL]	0
CC(C(=O)Nc1cc(-c2ccccc2)nn1-c1ccccc1)N(C)C (stereo unspecified) [DIFENAMIZOLE]	0
CCN(CC)CCNC(=O)c1ccc(N)cc1 [PROCAINAMIDE]	4
C=C[C@H]1C[N@@]2CC[C@H]1C[C@@H]2[C@@H](O)c1ccnc2ccc(OC)cc12 [QUINIDINE]	12

Batch request: Hepatotoxicity (choleostasis) per item, same order as input.
1. O=C(O)/C=C/C(=O)O [FUMARIC ACID]
2. CCCCN(CCCC)CCC(O)c1cc2c(Cl)cc(Cl)cc2c2cc(C(F)(F)F)ccc12 (stereo unspecified) [HALOFANTRINE]
3. CC(=N)N1CC[C@H](SC2=C(C(=O)O)N3C(=O)[C@H]([C@@H](C)O)[C@H]3C2)C1.O=C(O)CCNC(=O)c1ccccc1
4. Cc1c(N(C)CS(=O)(=O)[O-])c(=O)n(-c2ccccc2)n1C.[Na+] [DIPYRONE SODIUM]
5. CC(=O)O[C@@]12CO[C@@H]1C[C@H](O)[C@@]1(C)C(=O)[C@H](O)C3=C(C)[C@@H](OC(=O)[C@H](O)[C@@H](NC(=O)OC(C)(C)C)c4ccccc4)C[C@@](O)([C@@H](OC(=O)c4ccccc4)[C@H]21)C3(C)C.O.O.O [DOCETAXEL]

0
0
1
0
1

###

What Hepatotoxicity (granulomatous hepatitis) was measured for each of the following?
conditions: human
Where a SMILES comes first, the peptide text is derived from it. Bridges are numbered along the chain shown (N, C = ends). [ ]: non-standard residue; d: D form.
Give bare numbers.

COc1cc2oc(=O)c(C)c(C)c2cc1OCCCN1CCN(c2ccccc2OC)CC1	0
CN(C)CCC(c1ccc(Cl)cc1)c1ccccn1.O=C(O)/C=C\C(=O)O (stereo unspecified) [CHLORPHENIRAMINE MALEATE]	0
Cc1c(N(C)CS(=O)(=O)[O-])c(=O)n(-c2ccccc2)n1C.[Na+] [DIPYRONE SODIUM]	0

Batch request: Hepatotoxicity (granulomatous hepatitis) per item, same order as input.
1. CSc1ccc(C(=O)c2[nH]c(=O)[nH]c2C)cc1
2. CC1=C(/C=C/C(C)=C/C=C/C(C)=C\C(=O)O)C(C)(C)CCC1
3. CN(C)/N=N/c1[nH]cnc1C(N)=O
4. CN(C/C=C/C#CC(C)(C)C)Cc1cccc2ccccc12
5. CC(C)[C@@H]1NC(=O)[C@H](CCCCN)NC(=O)[C@@H](Cc2c[nH]c3ccccc23)NC(=O)[C@H](Cc2ccc(O)cc2)NC(=O)[C@@H](NC(=O)[C@H](N)Cc2ccccc2)CSSC[C@@H](C(=O)N[C@@H](Cc2c[nH]c3ccccc23)C(N)=O)NC1=O [VAPREOTIDE] (H-[dF]CY[dW]KVCW-NH2; disulfide 2-7)

0
0
0
0
0

Batch request: Hepatotoxicity (granulomatous hepatitis) per item, same order as input.
1. CC(/C=N/NC(=N)N)=N\NC(=N)N
2. CO/N=C(\C(=O)N[C@@H]1C(=O)N2C(C(=O)O)=C(COC(N)=O)CS[C@H]12)c1ccco1
3. O=C(CCCN1CCN(c2ccc(F)cc2)CC1)NC1c2ccccc2CSc2ccccc21 (stereo unspecified) [MONATEPIL]
4. CC(CN(C)C)CN1c2ccccc2Sc2ccc(C#N)cc21 (stereo unspecified)
5. NS(=O)(=O)Cc1noc2ccccc12 [ZONISAMIDE]
6. COC1=CC(=O)C[C@@H](C)[C@]12Oc1c(Cl)c(OC)cc(OC)c1C2=O

1. 0
2. 0
3. 0
4. 1
5. 0
6. 0

Batch request: Hepatotoxicity (granulomatous hepatitis) per item, same order as input.
1. CC(C)c1c(C(=O)Nc2ccccc2)c(-c2ccccc2)c(-c2ccc(F)cc2)n1CC[C@@H](O)C[C@@H](O)CC(=O)O
2. CCOC(=O)NNc1nncc2ccccc12

[0, 0]

// data source = ChEMBL document CHEMBL3137667
